Give measured log10(Relative cAMP EC50) for each item. Keep answers brief.
molecular target: human glucagon receptor (human) (UniProt P47871); experiment: cell-based or functional assay
Sequence (P47871 26-477): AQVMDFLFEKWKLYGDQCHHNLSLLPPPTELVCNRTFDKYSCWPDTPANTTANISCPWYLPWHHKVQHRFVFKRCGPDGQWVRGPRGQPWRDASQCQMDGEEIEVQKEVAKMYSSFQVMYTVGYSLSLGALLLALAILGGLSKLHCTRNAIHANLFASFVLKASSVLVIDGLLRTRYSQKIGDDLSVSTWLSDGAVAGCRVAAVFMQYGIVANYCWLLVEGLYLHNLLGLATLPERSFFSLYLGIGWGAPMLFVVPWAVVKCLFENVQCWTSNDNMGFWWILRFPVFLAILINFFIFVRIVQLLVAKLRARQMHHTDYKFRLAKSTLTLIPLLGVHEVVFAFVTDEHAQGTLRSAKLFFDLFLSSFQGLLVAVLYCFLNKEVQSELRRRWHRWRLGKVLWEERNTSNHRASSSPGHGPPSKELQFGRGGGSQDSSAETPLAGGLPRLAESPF
Scale: decimal log of Relative cAMP EC50, Relative cAMP EC50 in nM.

Study these solved cases before continuing.
YXQGTFTSDXSQXLDXKAQXAFIQXLIAXGPSSGEPPPSGGGE (Lys acylated γGlu-C18 diacid; non-natural residues; C-amide; synthetic construct; SITE 2: note = 2-Aminoisobutyric Acid; SITE 10: note = 3-(4-Pyridyl)-L-alanine; SITE 13: note = alpha-methyl-leucine; SITE 16: note = L-ornithine; SITE 17: note = Lysine is chemically modified through conjugation of the epsilon-amino group of the Lysine side chain with D-Glutami) [Example 1130] | 1.12
YXQGTXTSDXSIXLDKKAQXAFIEYLAEGGPSSGEPPPSGSEE (non-natural residues; acylated Lys; C-terminal amide; synthetic construct; SITE 2: note = 2-Aminoisobutyric Acid; SITE 6: note = alpha-methyl-2-fluoro-L-phenylalanine; SITE 10: note = 3-(4-Pyridyl)-L-alanine; SITE 13: note = alpha-methyl-leucine; SITE 17: note = Lysine is chemically modified through conjugation of the epsilon-amino group of the Lysine) [Example 631] | 1.23
YXQGTFTSDYSKXLDKKAQXAFIEYLLEGGESSGAPPPSGS (synthetic construct; SITE 2: note = 2-Aminoisobutyric Acid; SITE 13: note = alpha-methyl-leucine; SITE 17: note = Lysine is chemically modified through conjugation of the epsilon-amino group of the Lysine side chain with (2-[2-(2-Amino-ethoxy)-ethoxy]-acetyl)-(gamma-Glu)-CO-(CH2) 16-CO2H; SITE 20: n) [Example 358] | 0.44
YXQGTFTSDFSKXLDKKAQXAFIEYLLEGGPSSGAPPPSEG (synthetic construct; SITE 2: note = 2-Aminoisobutyric Acid; SITE 13: note = alpha-methyl-leucine; SITE 17: note = Lysine is chemically modified through conjugation of the epsilon-amino group of the Lysine side chain with (gamma-Glu)2-CO-(CH2)16-CO2H; SITE 20: note = 2-Aminoisobutyric Acid; SITE 41:) [Example 58] | 0.69
YXQGTFTSDXSQXLDXKAQXQFIEXLIAGGPSSGAPPPSGSEEE (Aib, 4Pal, Orn, Me4Pal, alpha-methyl-Tyr, lipidated Lys, amide; synthetic construct; SITE 2: note = 2-Aminoisobutyric Acid; SITE 10: note = 3-(4-Pyridyl)-L-alanine; SITE 13: note = alpha-methyl-leucine; SITE 16: note = L-ornithine; SITE 17: note = Lysine is chemically modified through conjugation of the epsilon-amino group of the Lysine side chain with D-Glutami) [Example 1081] | 1.29
YXQGTFTSDFSKXLDKKAQXAFIEYLLEXGPSSGAPPPSSG (acylated Lys; Aib, αMeL non-natural; C-terminal amide; synthetic construct; SITE 2: note = 2-Aminoisobutyric Acid; SITE 13: note = alpha-methyl-leucine; SITE 17: note = Lysine is chemically modified through conjugation of the epsilon-amino group of the Lysine side chain with (2-[2-(2-Amino-ethoxy)-ethoxy]-acetyl)-(gamma-Glu)-CO-(CH2) 18-CO2H; SITE 20: n) [Example 44] | 0.39

Items follow; give log10(Relative cAMP EC50) for each.
1. YXQGTXTSDXSILLDKKAQXAFIEYLXEGGPSSGAPPPSGTGE (synthetic construct; SITE 2: note = 2-Aminoisobutyric Acid; SITE 6: note = alpha-methyl-2-fluoro-L-phenylalanine; SITE 10: note = 3-(4-Pyridyl)-L-alanine; SITE 17: note = Lysine is chemically modified through conjugation of the epsilon-amino group of the Lysine side chain with (gamma-Glu)2-CO-(CH2)1) [Example 661 (SEQ ID NO: 667)]
2. YXQGTXTSDXXIXLDXKAQXEFIEXLVEGGPSSGEPPPSGE (Aib, αMeF(2F), 4Pal, αMeS, αMeL, Orn, Me4Pal, αMeY; lipidated Lys; amide; synthetic construct; SITE 2: note = 2-Aminoisobutyric Acid; SITE 6: note = alpha-methyl-2-fluoro-L-phenylalanine; SITE 10: note = 3-(4-Pyridyl)-L-alanine; SITE 11: note = alpha-methyl-L-serine; SITE 13: note = alpha-methyl-leucine; SITE 16: note = L-ornithine; SITE 17: note = Lysine is chemically mo) [Example 1161]
3. YXQGTFTSDXSXXLDKKAQXAFIEXLIEGGPSSGAPPPSGS (synthetic construct; SITE 2: note = 2-Aminoisobutyric Acid; SITE 10: note = 3-(4-Pyridyl)-L-alanine; SITE 12: note = L-ornithine; SITE 13: note = alpha-methyl-leucine; SITE 17: note = Lysine is chemically modified through conjugation of the epsilon-amino group of the Lysine side chain with (2-[2-(2-) [Example 497]
4. YXQGTFTSDXSQXLDKKAQXAFIEYLLEAGPSSXAPPPSGT (synthetic construct; SITE 2: note = 2-Aminoisobutyric Acid; SITE 10: note = 3-(4-Pyridyl)-L-alanine; SITE 13: note = alpha-methyl-leucine; SITE 17: note = Lysine is chemically modified through conjugation of the epsilon-amino group of the Lysine side chain with (2-[2-(2-Amino-ethoxy)-ethoxy]-acetyl)) [Example 825]
5. YXQGTFTSDXSQXLDXKAQXAFIEXLIEXGPSSGAPPPSGSEE (non-natural residues; acylated Lys; C-terminal amide; synthetic construct; SITE 2: note = 2-Aminoisobutyric Acid; SITE 10: note = 3-(4-Pyridyl)-L-alanine; SITE 13: note = alpha-methyl-leucine; SITE 16: note = L-ornithine; SITE 17: note = Lysine is chemically modified through conjugation of the epsilon-amino group of the Lysine side chain with D-Glutami) [Example 1112]
6. YXQGTFTSDFSKXLDKKAQXAFIEYLLAGGPSSGEPPPGGS (Aib, αMeL; acylated Lys; C-terminal amide; synthetic construct; SITE 2: note = 2-Aminoisobutyric Acid; SITE 13: note = alpha-methyl-leucine; SITE 17: note = Lysine is chemically modified through conjugation of the epsilon-amino group of the Lysine side chain with (2-[2-(2-Amino-ethoxy)-ethoxy]-acetyl)-(gamma-Glu)-CO-(CH2) 18-CO2H; SITE 20: n) [Example 9]

Return:
0.25
0.34
0.43
0.74
1.03
0.86
